Item-by-item account of composite z-score
Experiment: binders of probe aFSTL3 on microarray, primary screen, stem cell growth factor project, biochemical, small-molecule microarray, fluorescence 635/667 (AID 1064);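 further: measures binding of the biotinylated anti-FSTL3 antibody to printed compounds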
Details: higher = more signal
I only need the number, thanks.

Example entries and their recorded answers appear below.
{"columns": ["Molecule", "composite z-score"],
 "data": [
  ["CN1C(=O)C2C=CC(C(O)c3ccco3)N(Nc3ccccc3)C2C1=O (stereo not drawn)", 0.034],
  ["CC(C)[Si](C#Cc1ccc(Oc2ccccc2)cc1)(O[Si](C#Cc1ccc(Oc2ccccc2)cc1)(C(C)C)C(C)C)C(C)C", -0.496],
  ["COc1ccccc1CN1C(=O)c2ccccc2[C@@]2(Cc3ccccc3N(CC(C)C)C2=O)[C@@H]1c1ccc(CO)cc1", -0.211],
  ["O=C(c1ccccc1)N1C(=O)[C@]2(COC(c3ccc(OCCCO)cc3)=N2)Cc2ccccc21", 0.303],
  ["C[C@@]1([C@@H](NC(=O)c2ccc(-c3ccccc3)cc2)c2ccc(Cl)cc2)C[C@H]1C1CCCCC1", 0.512]
]}

Which composite z-score value is on record for CO[C@H]1O[C@H](CO)[C@@H](OC(=O)Nc2ccccc2)[C@H](OC(=O)Nc2ccccc2)[C@@H]1OC(=O)Nc1ccccc1 ?
-0.29

Then C=C[C@H](CO[Si](CC)(CC)CC)N(Cc1ccc(OC(C)=O)c(OC)c1)S(=O)(=O)c1ccc(Br)cc1 ?
0.572

Then COC(=O)[C@@]1(Cc2ccc(OC)cc2)[C@H]2c3cc(C(=O)N(C)C)n(CCc4ccccn4)c3C[C@H]2CN1C(=O)c1ccccc1 ?
1.63
